B1: POU domain, class 4, transcription factor 3, residues 185 to 256; numbered along this chain, Q15319 (parent)
chain: RELEAFAERFKQRRIKLGVTQADVGAALANLKIPGVGSLSQSTICRFESLTLSHNNMIALKPVLQAWLEEAE

Variants of: B1
Assay: abundance fitness (aPCA) (normalised: wild type 0, dead -1); higher = more abundant; growth selection in yeast, the domain comes from the species named
Settings: Homo sapiens
Lab note: compare abundance fitness against -0.05. Equal or greater, write Y. Smaller, write N.

Some solved cases for reference:
- N30G: N
- T43F: N
- T43M: N
- S49W: N
- C45H: Y

Reported abundance fitness at or above -0.05? `V36T` N

Reported abundance fitness at or above -0.05? `L28V` N

Reported abundance fitness at or above -0.05? `A26D` Y

Reported abundance fitness at or above -0.05? `A29Q` Y

Reported abundance fitness at or above -0.05? `P34F` N
